Origin of measurements: paper PMC12069901

Biological target: STAT3 protein (amino acids 127–688) (Homo sapiens)
Sequence (P40763 127-688): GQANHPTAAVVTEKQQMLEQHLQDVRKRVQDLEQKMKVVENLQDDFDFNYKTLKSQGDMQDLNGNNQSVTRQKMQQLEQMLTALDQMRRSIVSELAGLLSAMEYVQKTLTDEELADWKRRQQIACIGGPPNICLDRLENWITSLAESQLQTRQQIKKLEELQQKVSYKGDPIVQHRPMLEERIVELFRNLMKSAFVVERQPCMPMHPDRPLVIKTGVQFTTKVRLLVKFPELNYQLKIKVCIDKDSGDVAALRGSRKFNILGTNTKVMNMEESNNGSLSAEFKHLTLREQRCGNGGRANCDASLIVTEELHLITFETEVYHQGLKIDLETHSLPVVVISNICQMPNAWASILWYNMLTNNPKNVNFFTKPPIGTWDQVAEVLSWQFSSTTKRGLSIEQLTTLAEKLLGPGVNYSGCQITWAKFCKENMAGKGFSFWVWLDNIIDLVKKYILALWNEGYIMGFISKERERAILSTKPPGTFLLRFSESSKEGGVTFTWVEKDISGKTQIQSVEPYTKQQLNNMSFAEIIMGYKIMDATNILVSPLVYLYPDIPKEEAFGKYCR
quantity measured: Kd

>>> print(df.to_string())
                                   molecule   result
0  O=[N+]([O-])c1ccc2c(c1)S(=O)(=O)C=C2 [Stattic, reference compound]  9.07 µM
